Values were extracted from patent US7683168B2.

Measured Ki values are reported for all entries that follow.
# Subject of test: human delta receptor (Homo sapiens)
# Construct: 6110549
# Sequence (P41143 whole entry): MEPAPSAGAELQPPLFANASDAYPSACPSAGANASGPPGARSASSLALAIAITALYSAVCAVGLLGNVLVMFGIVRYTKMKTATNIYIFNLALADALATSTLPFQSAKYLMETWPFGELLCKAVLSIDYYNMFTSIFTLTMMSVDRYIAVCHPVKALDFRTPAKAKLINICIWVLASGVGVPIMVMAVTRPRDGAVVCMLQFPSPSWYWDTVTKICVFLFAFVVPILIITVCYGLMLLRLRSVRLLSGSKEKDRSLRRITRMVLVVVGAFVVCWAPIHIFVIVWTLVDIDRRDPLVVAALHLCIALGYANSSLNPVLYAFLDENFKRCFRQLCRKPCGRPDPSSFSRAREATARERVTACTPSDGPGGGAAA
# Method description: radioligand binding, human delta receptor, HEK-293 cell membranes
# Condition label: cell not marked (rat), species not given, read-out: δ
Please give a number only; it is taken to be in nM.

Solved cases below.
{"columns": ["Compound", "Metric name", "Reading unit", "Result number"],
 "data": [
  ["CCOC(=O)CCCCCN1CCN(C(=O)c2cccc([C@H](c3cccc(O)c3)N3C[C@@H](C)N(Cc4ccccc4)C[C@@H]3C)c2)CC1", "Ki", "nM", 6.9],
  ["C[C@@H]1CN([C@@H](c2cccc(O)c2)c2cccc(C(=O)N3CCN(CC(=O)O)CC3)c2)[C@@H](C)CN1CC1CC1", "Ki", "nM", 6.1],
  ["C[C@@H]1CN(C(c2cccc(O)c2)c2cccc(C(=O)N3CCCN(CCCCCCC(=O)O)CC3)c2)[C@@H](C)CN1CC1CC1 (some centres unmarked)", "Ki", "nM", 50.6],
  ["CCOC(=O)CCCN1CCCN(C(=O)c2cccc(C(c3cccc(O)c3)N3C[C@@H](C)N(Cc4ccccc4)C[C@@H]3C)c2)CC1 (some centres unmarked)", "Ki", "nM", 50.1],
  ["CCOC(=O)CN1CCN(C(=O)c2cccc([C@H](c3cccc(O)c3)N3C[C@@H](C)N(Cc4cccc(F)c4)C[C@@H]3C)c2)CC1", "Ki", "nM", 1.3]
]}

**Query** Consider the compound C[C@@H]1CN([C@@H](c2cccc(O)c2)c2cccc(C(=O)N3CCN(CC(=O)O)CC3)c2)[C@@H](C)CN1Cc1ccccc1 and give its measured Ki.
**Result** 0.54

**Query** Return reported Ki; argument: C[C@@H]1CN(C(c2cccc(O)c2)c2cccc(C(=O)N3CCCN(CCCC(=O)O)CC3)c2)[C@@H](C)CN1Cc1ccccc1 (some centres unmarked)
**Result** 14.8

**Query** // returns reported Ki for input C[C@@H]1CN([C@@H](c2cccc(O)c2)c2cccc(C(=O)N3CCN(Cc4ccc(C(=O)O)cc4)CC3)c2)[C@@H](C)CN1Cc1cccc(O)c1
**Result** 0.99

**Query** For CCOC(=O)N1CCN(C(=O)c2cccc([C@H](c3cccc(O)c3)N3C[C@@H](C)N(Cc4ccccc4)C[C@@H]3C)c2)CC1 , what is its reported Ki?
**Result** 2.2

**Query** Could you share which Ki value was measured for C=CCN1C[C@H](C)N([C@@H](c2cccc(O)c2)c2cccc(C(=O)N3CCN(CCCCC(=O)O)CC3)c2)C[C@H]1C ?
**Result** 13.4

**Query** Give its Ki value. Item: CCOC(=O)C1CCN(C(=O)c2cccc([C@H](c3cccc(O)c3)N3C[C@@H](C)N(Cc4cccc(F)c4)C[C@@H]3C)c2)CC1
**Result** 28.6

**Query** Please give the measured Ki for this compound: C=CCN1C[C@H](C)N([C@@H](c2cccc(O)c2)c2cccc(C(=O)N3CCNCC3)c2)C[C@H]1C
**Result** 5.1
